Target: T1, human Klotho β (human, UniProt Q86Z14 1-1044)
T1 sequence (looked up): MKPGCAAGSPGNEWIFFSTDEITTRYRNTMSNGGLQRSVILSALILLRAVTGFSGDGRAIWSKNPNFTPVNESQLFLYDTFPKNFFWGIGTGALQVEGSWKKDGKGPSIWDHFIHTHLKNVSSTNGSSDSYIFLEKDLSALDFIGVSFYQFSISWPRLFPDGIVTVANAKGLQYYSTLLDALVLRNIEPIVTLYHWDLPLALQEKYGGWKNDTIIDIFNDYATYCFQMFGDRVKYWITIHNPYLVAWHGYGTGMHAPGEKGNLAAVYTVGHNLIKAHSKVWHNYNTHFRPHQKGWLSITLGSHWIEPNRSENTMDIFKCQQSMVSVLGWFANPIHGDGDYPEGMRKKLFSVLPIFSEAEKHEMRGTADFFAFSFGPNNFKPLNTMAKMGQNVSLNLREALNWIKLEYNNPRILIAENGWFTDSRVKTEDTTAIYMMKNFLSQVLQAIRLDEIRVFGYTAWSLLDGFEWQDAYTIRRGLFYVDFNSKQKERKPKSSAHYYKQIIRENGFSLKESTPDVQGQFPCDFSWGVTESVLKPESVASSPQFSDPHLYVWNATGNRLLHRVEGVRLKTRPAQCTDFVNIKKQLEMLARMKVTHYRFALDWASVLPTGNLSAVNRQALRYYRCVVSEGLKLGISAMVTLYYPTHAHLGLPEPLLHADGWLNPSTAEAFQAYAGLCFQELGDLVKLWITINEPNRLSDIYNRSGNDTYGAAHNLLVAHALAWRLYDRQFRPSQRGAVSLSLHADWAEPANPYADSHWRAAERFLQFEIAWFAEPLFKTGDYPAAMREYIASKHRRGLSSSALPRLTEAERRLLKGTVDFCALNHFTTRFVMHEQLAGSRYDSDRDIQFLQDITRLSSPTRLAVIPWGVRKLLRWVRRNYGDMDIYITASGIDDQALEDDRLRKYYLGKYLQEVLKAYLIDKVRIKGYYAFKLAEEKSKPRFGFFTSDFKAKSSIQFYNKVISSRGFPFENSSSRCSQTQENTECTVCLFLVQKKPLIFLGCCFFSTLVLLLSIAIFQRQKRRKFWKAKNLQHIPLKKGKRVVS
Assay: cell-based or functional assay
observable: IC-50 of antagonism of FGF21 (pErk1/2, 293 HEK hKLB cells) (µM)

a = PPDVASSDPLSMVGPSQGRSPSYAS [FGF21 25mer A5]
b = PPDVGSSDPLSMVGPSAGRSPSYAS [FGF21 25mer A17]
c = PPDVGSSDPLSMVGPSQGRSPSYAA [FGF21 25mer A25]
Arrange these binders by their IC-50 of antagonism of FGF21 (pErk1/2, 293 HEK hKLB cells), starting with the largest number. Put the labels in the order asked and list them. b, a, c

a = PPDVGSSDPLSMVGASQGRSPSYAS [FGF21 25mer A15]
b = APDVGSSDPLSMVGPSQGRSPSYAS [FGF21 25mer A1]
Pick one: a or b . Which one has the lower reported IC-50 of antagonism of FGF21 (pErk1/2, 293 HEK hKLB cells)? State the label of the item chosen. a
(a: 0.12 µM, b: 0.39 µM)
